This collection of values is drawn from ChEMBL document CHEMBL2010677.

# Tested on: HepG2
# test_protocol: Cytotoxicity against human HepG2 cells by MTT assay
# Type: cell-based
quantity_kind: Activity

>>> endpoint_result("COc1ccc([C@@H](O)[C@H](O)CO)cc1OC")
"Non-toxic"
>>> endpoint_result("C=CCc1ccc(OC)c(OC)c1")
"Non-toxic"
>>> endpoint_result("C/C=C\\CC/C=C/C=C/C(=O)NCC(C)C")
"Non-toxic"
>>> endpoint_result("COc1cc([C@@H]2OC[C@@H]3[C@H]2CO[C@H]3c2ccc3c(c2)OCO3)ccc1O")
"Non-toxic"
>>> endpoint_result("CC(C)(O)C1=C[C@@H](O)[C@@](C)(O)CC1")
"Non-toxic"
>>> endpoint_result("c1cc2c(cc1[C@H]1OC[C@H]3[C@@H]1CO[C@H]3c1ccc3c(c1)OCO3)OCO2")
"Non-toxic"
>>> endpoint_result("CC1=CC(=O)C2C(C1=O)C2(C)C (racemic)")
"Non-toxic"
>>> endpoint_result("COc1cc([C@H]2OC[C@@H]3[C@H]2CO[C@H]3c2ccc3c(c2)OCO3)ccc1O")
"Non-toxic"
>>> endpoint_result("c1cc2c(cc1[C@H]1OC[C@H]3[C@@H]1CO[C@@H]3c1ccc3c(c1)OCO3)OCO2")
"Non-toxic"
>>> endpoint_result("CC=C/C=C\\CC/C=C/C=C/C(=O)NCC(C)C")
"Non-toxic"
>>> endpoint_result("COc1cc([C@H]2OC[C@H]3[C@@H]2CO[C@H]3c2ccc(O)c(OC)c2)ccc1O")
"Non-toxic"
>>> endpoint_result("COc1cc([C@H]2OC[C@H]3[C@@H]2CO[C@H]3c2ccc3c(c2)OCO3)cc(OC)c1O")
"Non-toxic"
